These data points were gathered from paper PMC6950057.

experiment.description: Tissue distribution after single oral dose
Type: in vivo, mice
condition.description: KM, mouse, liver; 8 h; oral 500 mg·kg^−1, female mice; read-out: Concentration in Liver
quantity.kind: concentration at 8 h (ng/g)

>  <compound>
CC(C)=C/C=C/[C@H](C)[C@H]1CC[C@]2(C)C[C@@H]3C(C)=CC(=O)[C@H]3/C(C=O)=C\C[C@@H]12 [MHO7, 6-epi-ophiobolin G]

>  <quantity.kind>
concentration at 8 h

>  <units.text>
ng/g

>  <endpoint.result>
180

$$$$

* * *

experiment.description: Tissue distribution after single oral dose
Format: in vivo, mice
condition.description: KM, mouse, reproductive organs (uterus, fallopian tube and ovary); 30 h; oral 500 mg·kg^−1, female mice; read-out: Concentration in Reproductive organs

>  <compound>
CC(C)=C/C=C/[C@H](C)[C@H]1CC[C@]2(C)C[C@@H]3C(C)=CC(=O)[C@H]3/C(C=O)=C\C[C@@H]12 [MHO7, 6-epi-ophiobolin G]

>  <units.text>
ng/g

>  <concentration at 30 h>
360

$$$$

* * *

experiment.description: Log P by shaking flask method (n-octanol/water)
Format: physicochemical
condition.description: 25 °C, 4 h, read-out: Log P Value
quantity.kind: logP at 4 h

>  <compound>
CC(C)=C/C=C/[C@H](C)[C@H]1CC[C@]2(C)C[C@@H]3C(C)=CC(=O)[C@H]3/C(C=O)=C\C[C@@H]12 [MHO7, 6-epi-ophiobolin G]

>  <endpoint.result>
1.23

$$$$

* * *

experiment.description: Tissue distribution after single oral dose
Assay type: in vivo, mice
condition.description: KM, mouse, liver; 4 h; oral 500 mg·kg^−1, female mice; read-out: Concentration in Liver
quantity.kind: concentration at 4 h (ng/g)

>  <compound>
CC(C)=C/C=C/[C@H](C)[C@H]1CC[C@]2(C)C[C@@H]3C(C)=CC(=O)[C@H]3/C(C=O)=C\C[C@@H]12 [MHO7, 6-epi-ophiobolin G]

>  <quantity.kind>
concentration at 4 h

>  <endpoint.result>
1640

$$$$

* * *

experiment.description: Log D by shaking flask method (n-octanol/phosphate buffer)
Type: physicochemical
condition.description: 37 °C, octanol/PBS pH 5.0, 4 h, read-out: Log P/D Value O/P (pH 5.0)
quantity.kind: logD at 4 h

>  <compound>
CC(C)=C/C=C/[C@H](C)[C@H]1CC[C@]2(C)C[C@@H]3C(C)=CC(=O)[C@H]3/C(C=O)=C\C[C@@H]12 [MHO7, 6-epi-ophiobolin G]

>  <quantity.kind>
logD at 4 h

>  <endpoint.result>
1.15

$$$$

* * *

experiment.description: Tissue distribution after single oral dose
Type: in vivo, mice
condition.description: KM, mouse, heart; 8 h; oral 500 mg·kg^−1, female mice; read-out: Concentration in Heart

>  <compound>
CC(C)=C/C=C/[C@H](C)[C@H]1CC[C@]2(C)C[C@@H]3C(C)=CC(=O)[C@H]3/C(C=O)=C\C[C@@H]12 [MHO7, 6-epi-ophiobolin G]

>  <concentration at 8 h (ng/g)>
670

$$$$

* * *

experiment.description: Tissue distribution after single oral dose
Format: in vivo, mice
condition.description: female, KM, mouse, stomach; oral 500 mg·kg^−1; read-out: tissue/plasma concentration ratio, stomach
quantity.kind: Kp

>  <molecule>
CC(C)=C/C=C/[C@H](C)[C@H]1CC[C@]2(C)C[C@@H]3C(C)=CC(=O)[C@H]3/C(C=O)=C\C[C@@H]12 [MHO7, 6-epi-ophiobolin G]

>  <endpoint.result>
> 1000

$$$$

* * *

experiment.description: Tissue distribution after single oral dose
Type: in vivo, mice
condition.description: KM, mouse, brain; 4 h; oral 500 mg·kg^−1, female mice; read-out: Concentration in Brain

>  <molecule>
CC(C)=C/C=C/[C@H](C)[C@H]1CC[C@]2(C)C[C@@H]3C(C)=CC(=O)[C@H]3/C(C=O)=C\C[C@@H]12 [MHO7, 6-epi-ophiobolin G]

>  <concentration at 4 h>
480 ng/g

$$$$

* * *

experiment.description: Log D by shaking flask method (n-octanol/phosphate buffer)
Type: physicochemical
condition.description: 37 °C, octanol/PBS pH 7.4, 4 h, read-out: Log P/D Value O/P (pH 7.4)

>  <compound>
CC(C)=C/C=C/[C@H](C)[C@H]1CC[C@]2(C)C[C@@H]3C(C)=CC(=O)[C@H]3/C(C=O)=C\C[C@@H]12 [MHO7, 6-epi-ophiobolin G]

>  <logD at 4 h>
1.39

$$$$

* * *

experiment.description: Tissue distribution after single oral dose
Type: in vivo, mice
condition.description: KM, mouse, muscle (hind limb); 1 h; oral 500 mg·kg^−1, female mice; read-out: Concentration in Muscle
quantity.kind: concentration at 1 h (ng/g)

>  <compound>
CC(C)=C/C=C/[C@H](C)[C@H]1CC[C@]2(C)C[C@@H]3C(C)=CC(=O)[C@H]3/C(C=O)=C\C[C@@H]12 [MHO7, 6-epi-ophiobolin G]

>  <quantity.kind>
concentration at 1 h

>  <endpoint.result>
310

$$$$

* * *

experiment.description: Tissue distribution after single oral dose
Format: in vivo, mice
condition.description: KM, mouse, spleen; 1 h; oral 500 mg·kg^−1, female mice; read-out: Concentration in Spleen

>  <compound>
CC(C)=C/C=C/[C@H](C)[C@H]1CC[C@]2(C)C[C@@H]3C(C)=CC(=O)[C@H]3/C(C=O)=C\C[C@@H]12 [MHO7, 6-epi-ophiobolin G]

>  <concentration at 1 h / ng/g>
40

$$$$

* * *

experiment.description: Tissue distribution after single oral dose
Type: in vivo, mice
condition.description: female, KM, mouse, muscle (hind limb); over 1-30 h; oral 500 mg·kg^−1; read-out: tissue/plasma concentration ratio range, muscle

>  <compound>
CC(C)=C/C=C/[C@H](C)[C@H]1CC[C@]2(C)C[C@@H]3C(C)=CC(=O)[C@H]3/C(C=O)=C\C[C@@H]12 [MHO7, 6-epi-ophiobolin G]

>  <Kp>
0.99 to 5.54

$$$$

* * *

experiment.description: Tissue distribution after single oral dose
Format: in vivo, mice
condition.description: KM, mouse, lung; 12 h; oral 500 mg·kg^−1, female mice; read-out: Concentration in Lung
quantity.kind: concentration at 12 h (ng/g)

>  <compound>
CC(C)=C/C=C/[C@H](C)[C@H]1CC[C@]2(C)C[C@@H]3C(C)=CC(=O)[C@H]3/C(C=O)=C\C[C@@H]12 [MHO7, 6-epi-ophiobolin G]

>  <units.text>
ng/g

>  <endpoint.result>
2340

$$$$

* * *

experiment.description: Log D by shaking flask method (n-octanol/phosphate buffer)
Format: physicochemical
condition.description: 37 °C, octanol/PBS pH 7.4, 12 h, read-out: Log P/D Value O/P (pH 7.4)
Procedure: An HPLC system (Shimadzu, Japan) was equipped with a LC-20AD binary pump system, a SIL-20AD auto sampler, a CBM-20A system controller, and a CTO-20A oven. […] The phases of distilled water and n-octanol were saturated with each other by shaking for 48 h with 250 rpm in a shaking water bath prior to use. […] The samples of both phases were collected at 0, 4, 8, 12, 24, 30, 36 and 48 h, diluted with methanol (1:1, V) and determined by HPLC with the detection wavelength of 234 nm. […]

>  <molecule>
CC(C)=C/C=C/[C@H](C)[C@H]1CC[C@]2(C)C[C@@H]3C(C)=CC(=O)[C@H]3/C(C=O)=C\C[C@@H]12 [MHO7, 6-epi-ophiobolin G]

>  <logD at 12 h>
1.31

$$$$

* * *

experiment.description: Tissue distribution after single oral dose
Format: in vivo, mice
condition.description: KM, mouse, spleen; 8 h; oral 500 mg·kg^−1, female mice; read-out: Concentration in Spleen
quantity.kind: concentration at 8 h (ng/g)

>  <molecule>
CC(C)=C/C=C/[C@H](C)[C@H]1CC[C@]2(C)C[C@@H]3C(C)=CC(=O)[C@H]3/C(C=O)=C\C[C@@H]12 [MHO7, 6-epi-ophiobolin G]

>  <quantity.kind>
concentration at 8 h

>  <endpoint.result>
480

$$$$

* * *

experiment.description: Tissue distribution after single oral dose
Assay type: in vivo, mice
condition.description: KM, mouse, kidney; 30 h; oral 500 mg·kg^−1, female mice; read-out: Concentration in Kidney
quantity.kind: concentration at 30 h (ng/g)

>  <compound>
CC(C)=C/C=C/[C@H](C)[C@H]1CC[C@]2(C)C[C@@H]3C(C)=CC(=O)[C@H]3/C(C=O)=C\C[C@@H]12 [MHO7, 6-epi-ophiobolin G]

>  <units.text>
ng/g

>  <endpoint.result>
70

$$$$

* * *

experiment.description: Log D by shaking flask method (n-octanol/phosphate buffer)
Assay type: physicochemical
condition.description: 37 °C, octanol/PBS pH 5.0, 12 h, read-out: Log P/D Value O/P (pH 5.0)
quantity.kind: logD at 12 h

>  <molecule>
CC(C)=C/C=C/[C@H](C)[C@H]1CC[C@]2(C)C[C@@H]3C(C)=CC(=O)[C@H]3/C(C=O)=C\C[C@@H]12 [MHO7, 6-epi-ophiobolin G]

>  <endpoint.result>
0.95

$$$$
